Biological target: human 5-HT4 receptor (Homo sapiens (Human))
Sequence (Q13639 whole entry): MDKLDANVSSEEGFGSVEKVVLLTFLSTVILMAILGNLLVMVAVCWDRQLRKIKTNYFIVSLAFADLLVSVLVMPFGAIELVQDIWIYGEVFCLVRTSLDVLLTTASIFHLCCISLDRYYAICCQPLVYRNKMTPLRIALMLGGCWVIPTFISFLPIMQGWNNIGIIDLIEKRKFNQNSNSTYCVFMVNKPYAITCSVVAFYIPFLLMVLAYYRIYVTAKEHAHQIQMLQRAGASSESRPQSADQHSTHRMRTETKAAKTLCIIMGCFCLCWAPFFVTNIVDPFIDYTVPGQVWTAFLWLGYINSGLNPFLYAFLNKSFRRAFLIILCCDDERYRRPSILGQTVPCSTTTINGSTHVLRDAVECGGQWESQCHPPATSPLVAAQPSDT
Assay: Binding affinity of compounds for 5-HT4 receptor ([H3]-GR113808 radioligand, COS-7 membrane homogenates)
Conditions: inhibition of specific binding of 0.595 nM [H3]-GR113808 to human 5-HT4 receptor, COS-7 membranes; read-out: IC50
I'd appreciate it if you could label each record using IC50 and these ranges: low: < 100 pM; medium: ≥ 100 pM and < 200 pM; high: ≥ 200 pM

# Molecule, Category label
records = [
    ("COc1cc(N)c(Cl)cc1C(=O)NCC1CCN(CCCn2nccn2)CC1 [Example 8]", "medium"),
    ("COc1cc(N)c(Cl)cc1C(=O)NCC1CCN(CCCCCn2ccc3ccccc32)CC1 [Example 5]", "low"),
    ("COc1cc(N)c(Cl)cc1C(=O)NCC1CCN(Cc2ccc(F)cc2)CC1 [Example 13]", "medium"),
    ("COc1cc(N)c(Cl)cc1C(=O)NCC1CCN(Cc2cccnc2)CC1 [Example 9]", "high"),
    ("COc1cc(N)c(Cl)cc1C(=O)NCC1CCN(CCCn2ccnn2)CC1 [Example 7]", "low"),
    ("COc1cc(N)c(Cl)cc1C(=O)NCC1CCN(Cc2ccc(O)cc2)CC1 [Example 14]", "high"),
    ("COc1cc(N)c(Cl)cc1C(=O)NCC1CCN(CCCn2ccnc2C)CC1 [Example 4]", "high"),
    ("COc1cc(N)c(Cl)cc1C(=O)NCC1CCN(Cc2cn(C)c3ccccc23)CC1 [Example 10]", "low"),
    ("COc1cc(N)c(Cl)cc1C(=O)NCC1CCN(CCCn2cncn2)CC1 [Example 1]", "high"),
    ("COc1cc(N)c(Cl)cc1C(=O)NCC1CCN(Cc2ncc[nH]2)CC1 [Example 11]", "high"),
    ("COc1cc(N)c(Cl)cc1C(=O)NCC1CCN(CCCn2cnnn2)CC1 [Example 2]", "medium"),
    ("COc1cc(N)c(Cl)cc1C(=O)NCC1CCN(CCCn2ccc3ccccc32)CC1 [Example 3]", "low"),
    ("COc1cc(N)c(Cl)cc1C(=O)NCC1CCN(Cc2cccn2C)CC1 [Example 12]", "high"),
]

====

Target: UniProtKB Q13639
Test: Binding affinity of compounds for 5-HT4 receptor ([H3]-GR113808 radioligand, COS-7 membrane homogenates)

# Record smiles, Target entity, IC50
rows = [
    ("COc1cc(N)c(Cl)cc1C(=O)NCC1CCN(CCc2c[nH]c3ccccc23)CC1", "UniProtKB Q13639", "2 pM"),
]

====

Molecular target: hERG potassium channel (Homo sapiens (Human))
Sequence (Q12809 whole entry): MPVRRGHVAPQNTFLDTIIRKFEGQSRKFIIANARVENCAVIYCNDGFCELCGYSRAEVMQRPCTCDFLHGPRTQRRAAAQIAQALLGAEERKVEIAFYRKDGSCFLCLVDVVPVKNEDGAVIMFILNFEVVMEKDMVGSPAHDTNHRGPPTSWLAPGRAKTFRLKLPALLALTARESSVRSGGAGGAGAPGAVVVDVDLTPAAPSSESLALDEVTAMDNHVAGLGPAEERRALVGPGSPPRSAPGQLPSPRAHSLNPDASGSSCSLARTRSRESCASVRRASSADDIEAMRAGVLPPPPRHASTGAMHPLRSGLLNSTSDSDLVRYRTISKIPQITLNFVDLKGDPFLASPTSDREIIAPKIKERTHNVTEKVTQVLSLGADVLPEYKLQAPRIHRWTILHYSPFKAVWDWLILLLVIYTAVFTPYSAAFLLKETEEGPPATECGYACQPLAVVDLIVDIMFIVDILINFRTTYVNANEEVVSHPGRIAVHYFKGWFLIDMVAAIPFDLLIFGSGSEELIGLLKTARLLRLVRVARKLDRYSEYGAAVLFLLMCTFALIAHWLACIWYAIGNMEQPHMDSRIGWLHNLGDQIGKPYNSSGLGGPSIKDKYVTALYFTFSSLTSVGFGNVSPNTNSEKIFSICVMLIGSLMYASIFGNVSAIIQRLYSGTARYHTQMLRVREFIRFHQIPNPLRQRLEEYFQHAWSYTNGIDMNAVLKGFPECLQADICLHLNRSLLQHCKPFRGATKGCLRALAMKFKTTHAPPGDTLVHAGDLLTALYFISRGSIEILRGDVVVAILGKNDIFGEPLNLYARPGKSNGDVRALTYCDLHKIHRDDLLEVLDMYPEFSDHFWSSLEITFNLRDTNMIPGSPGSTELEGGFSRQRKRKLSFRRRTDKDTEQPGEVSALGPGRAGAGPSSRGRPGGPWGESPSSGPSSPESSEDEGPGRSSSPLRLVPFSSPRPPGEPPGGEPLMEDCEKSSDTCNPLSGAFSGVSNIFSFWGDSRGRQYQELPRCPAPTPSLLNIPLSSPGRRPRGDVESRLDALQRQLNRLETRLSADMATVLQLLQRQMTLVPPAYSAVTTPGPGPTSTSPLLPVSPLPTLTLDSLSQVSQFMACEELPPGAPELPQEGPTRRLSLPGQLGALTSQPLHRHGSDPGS
Assay: Binding affinity for hERG potassium channel ([H3]-Astemizole radioligand, HEK-293 membrane homogenates, MDS Pharma Service)
Conditions: probe [H3]-Astemizole (1.5 nM), 10 μM test material, 1.5 nM [H3]-Astemizole, hERG K+ channel, HEK-293 membranes
Given measured inhibition at 10 μM, output Y if it is greater than or equal to 20% and N if not.

# Compound, Category label
measured = [
    ("COc1cc(N)c(Cl)cc1C(=O)NCC1CCN(CCCn2nccn2)CC1 [Example 8]", "N"),
    ("COc1cc(N)c(Cl)cc1C(=O)NCC1CCN(Cc2cccnc2)CC1 [Example 9]", "N"),
    ("COc1cc(N)c(Cl)cc1C(=O)NCC1CCN(CCCn2ccnn2)CC1 [Example 7]", "N"),
    ("COc1cc(N)c(Cl)cc1C(=O)NCC1CCN(Cc2ccc(O)cc2)CC1 [Example 14]", "Y"),
    ("COc1cc(N)c(Cl)cc1C(=O)NCC1CCN(CCCCCn2ccnn2)CC1 [Example 6]", "N"),
    ("COc1cc(N)c(Cl)cc1C(=O)NCC1CCN(CCCn2ccnc2C)CC1 [Example 4]", "N"),
    ("COc1cc(N)c(Cl)cc1C(=O)NCC1CCN(Cc2ccc(F)cc2)CC1 [Example 13]", "Y"),
    ("COc1cc(N)c(Cl)cc1C(=O)NCC1CCN(Cc2ncc[nH]2)CC1 [Example 11]", "Y"),
    ("COc1cc(N)c(Cl)cc1C(=O)NCC1CCN(CCCn2cncn2)CC1 [Example 1]", "N"),
    ("COc1cc(N)c(Cl)cc1C(=O)NCC1CCN(CCCn2cnnn2)CC1 [Example 2]", "N"),
    ("COc1cc(N)c(Cl)cc1C(=O)NCC1CCN(Cc2cccn2C)CC1 [Example 12]", "Y"),
]
